Listing: IC50 of selected molecules
target.entity: human recombinant LPA1 expressed in CHO cells (Homo sapiens, UniProt Q92633)
Sequence (Q92633 whole entry): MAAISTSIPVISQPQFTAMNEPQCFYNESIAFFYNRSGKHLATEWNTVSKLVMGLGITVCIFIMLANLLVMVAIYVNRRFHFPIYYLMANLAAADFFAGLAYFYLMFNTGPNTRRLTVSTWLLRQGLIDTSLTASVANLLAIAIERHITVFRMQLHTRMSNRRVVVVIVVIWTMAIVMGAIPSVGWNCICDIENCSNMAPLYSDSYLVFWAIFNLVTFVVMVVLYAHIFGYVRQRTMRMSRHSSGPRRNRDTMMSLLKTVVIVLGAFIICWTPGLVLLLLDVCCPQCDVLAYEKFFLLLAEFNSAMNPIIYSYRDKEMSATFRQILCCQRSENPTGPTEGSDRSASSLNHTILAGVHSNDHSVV
assay.info: FLIPR calcium mobilization assay, LPA1 antagonism in CHO-hLPA1 cells
condition.summary: inhibition of LPA EC80 Ca2+ response, 30 min pre-incubation, expressed as range of activity

Examples with answers:
molecule	target.entity	parameter.measured	observed
Cc1nc(-c2onc(C)c2CNc2nccc(-c3cccc4ccccc34)n2)ccc1NC(=O)[C@H]1CCCC[C@@H]1C(=O)O	human recombinant LPA1 expressed in CHO cells (Homo sapiens, UniProt Q92633)	IC50	< 50 nM
CCOc1cncc(Nc2c(C)noc2-c2ccc(OC[C@H]3CCCC[C@@H]3C(=O)O)c(C)n2)n1	human recombinant LPA1 expressed in CHO cells (Homo sapiens, UniProt Q92633)	IC50	< 50 nM
Cc1noc(-c2ccc(NC(=O)C3CCCCC3C(=O)O)cc2)c1Nc1cncc(OC(C)C)n1 (racemic)	human recombinant LPA1 expressed in CHO cells (Homo sapiens, UniProt Q92633)	IC50	< 50 nM

Kindly review the next molecule as well.
# input Report value only: IC50, human recombinant LPA1 expressed in CHO cells (Homo sapiens, UniProt Q92633), Cc1nc(-c2onc(C)c2Nc2cncc(-c3cccnc3)n2)ccc1NC(=O)[C@H]1CCCC[C@@H]1C(=O)O
# output 50 to 250 nM

----------
target.entity: human recombinant LPA1 expressed in CHO cells (Homo sapiens, UniProt Q92633)
assay.info: FLIPR calcium mobilization assay, LPA1 antagonism in CHO-hLPA1 cells
condition.summary: inhibition of LPA EC80 Ca2+ response, 30 min pre-incubation, expressed as range of activity
parameter.measured: IC50

molecule	parameter.measured	observed
Cc1noc(-c2ccc(OCC3CCCCC3C(=O)O)cn2)c1NC(=O)O[C@H](C)c1ccccc1Cl (single isomer, unassigned) [Compound 81]	IC50	< 50 nM
Cc1nc(-c2nnn(C)c2CNC(=O)O[C@H](C)c2ccccc2Cl)ccc1NC(=O)[C@H]1CCCC[C@@H]1C(=O)O	IC50	250 to 600 nM
Cc1noc(-c2ccc(OC[C@H]3CCCC[C@@H]3C(=O)O)cn2)c1Nc1cncc(OCC(C)C)n1	IC50	< 50 nM
Cc1noc(-c2ccc(OCC3CCCCC3C(=O)O)cc2)c1NC(=O)O[C@H](C)c1ccccc1Cl (stereo partly drawn)	IC50	< 50 nM
Cc1nc(-c2cnn(C)c2CNc2nccc(C3CCCCC3)n2)ccc1NC(=O)[C@H]1CCCC[C@@H]1C(=O)O	IC50	< 50 nM
Cc1noc(-c2ccc(OC[C@H]3CCCC[C@@H]3C(=O)O)cn2)c1NC(=O)O[C@H](C)c1ccccc1Cl	IC50	< 50 nM
Cc1noc(-c2ccc(OCC3CCCCC3C(=O)O)cn2)c1NC(=O)O[C@H](C)c1ccccc1Cl (stereo partly drawn) [Compound 79]	IC50	< 50 nM
Cc1nc(-c2onc(C)c2Nc2cncc(C(F)(F)F)n2)ccc1NC(=O)[C@H]1CCCC[C@@H]1C(=O)O	IC50	50 to 250 nM
Cc1nc(-c2onc(C)c2CNc2nccc(-c3cccnc3)n2)ccc1NC(=O)[C@H]1CCCC[C@@H]1C(=O)O	IC50	< 50 nM
Cc1nc(-c2onc(C)c2NS(=O)(=O)CCc2ccccc2Cl)ccc1NC(=O)[C@H]1CCCC[C@@H]1C(=O)O	IC50	< 50 nM

# input Identify the reported IC50 for the following entry. CCCN(C)C(=O)OCc1c(-c2ccc(OC[C@H]3CCCC[C@@H]3C(=O)O)c(C)n2)nnn1C
# output 50 to 250 nM

# input Please indicate IC50 recorded for COc1cncc(Nc2c(C)noc2-c2ccc(OC[C@H]3CCCC[C@@H]3C(=O)O)c(C)n2)n1
# output 50 to 250 nM
